- Organism: Danio rerio
- EXPERIMENT NOTES: Induction of acute behavioural changes in wild type zebrafish Singapore at 7 days post-fertilization stage after 1 hr by imaging analysis
- Type: functional
MEASURED METRIC: Activity

COc1ccc2[nH]cc(CCN(C)C)c2c1
Dose-dependent effect
COc1ccc2ccn(CCN(C)C)c2c1
Dose-dependent effect
COc1ccc2c(ccn2CCN(C)C)c1.O=C(O)/C=C/C(=O)O
Dose-dependent effect
COc1ccc2c(CCN(C)C)c[nH]c2c1
Dose-dependent effect
